Molecular target: T1, Marmoset Type II GnRH receptor (marmoset)
T1 chain: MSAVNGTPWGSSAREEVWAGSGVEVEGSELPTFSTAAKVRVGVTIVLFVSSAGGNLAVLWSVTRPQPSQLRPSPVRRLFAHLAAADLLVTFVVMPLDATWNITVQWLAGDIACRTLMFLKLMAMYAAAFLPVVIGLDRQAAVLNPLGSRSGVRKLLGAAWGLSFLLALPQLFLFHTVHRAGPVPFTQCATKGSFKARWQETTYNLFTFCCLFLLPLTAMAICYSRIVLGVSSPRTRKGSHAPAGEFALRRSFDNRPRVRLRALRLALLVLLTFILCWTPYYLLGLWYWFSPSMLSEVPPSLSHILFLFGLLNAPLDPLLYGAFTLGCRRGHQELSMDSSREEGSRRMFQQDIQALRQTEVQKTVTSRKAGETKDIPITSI
Assay: competition with ^125I-[His^5-D-Tyr^6]GnRH I on COS-7 cells expressing the receptor (n = 3-6)
pIC50: −log10 of the molar value.
EXPERIMENTAL_ENDPOINT: pIC50

(P) QHWSYGWLPG (peptide, UniProt P01148 24-33, looked up, modifications not checked) [salmon GnRH, P01148 24-33]
(Q) QHWSYGLRPG (peptide, UniProt P01148 24-33, looked up, modifications not checked) [Mammalian GnRH I, P01148 24-33]
Exercise: Consider P and Q . Which of these has its pIC50 at a higher number? Give the label of your selection.
Solution: P
(P: 8.02, Q: 7.37)
